Data provenance: patent US20140179896A1

- target desc: T1, human vascular endothelial growth factor receptor-2 Fc chimera (KDR-Fc) (human, UniProt P35968 20-764)
- T1 construct: range 1-764; also called human VEGFR-2; VEGF-R2-Fc; not shown: human IgG1 Fc
- T1 sequence (P35968 20-764 limits assumed, change not shown, form in doubt): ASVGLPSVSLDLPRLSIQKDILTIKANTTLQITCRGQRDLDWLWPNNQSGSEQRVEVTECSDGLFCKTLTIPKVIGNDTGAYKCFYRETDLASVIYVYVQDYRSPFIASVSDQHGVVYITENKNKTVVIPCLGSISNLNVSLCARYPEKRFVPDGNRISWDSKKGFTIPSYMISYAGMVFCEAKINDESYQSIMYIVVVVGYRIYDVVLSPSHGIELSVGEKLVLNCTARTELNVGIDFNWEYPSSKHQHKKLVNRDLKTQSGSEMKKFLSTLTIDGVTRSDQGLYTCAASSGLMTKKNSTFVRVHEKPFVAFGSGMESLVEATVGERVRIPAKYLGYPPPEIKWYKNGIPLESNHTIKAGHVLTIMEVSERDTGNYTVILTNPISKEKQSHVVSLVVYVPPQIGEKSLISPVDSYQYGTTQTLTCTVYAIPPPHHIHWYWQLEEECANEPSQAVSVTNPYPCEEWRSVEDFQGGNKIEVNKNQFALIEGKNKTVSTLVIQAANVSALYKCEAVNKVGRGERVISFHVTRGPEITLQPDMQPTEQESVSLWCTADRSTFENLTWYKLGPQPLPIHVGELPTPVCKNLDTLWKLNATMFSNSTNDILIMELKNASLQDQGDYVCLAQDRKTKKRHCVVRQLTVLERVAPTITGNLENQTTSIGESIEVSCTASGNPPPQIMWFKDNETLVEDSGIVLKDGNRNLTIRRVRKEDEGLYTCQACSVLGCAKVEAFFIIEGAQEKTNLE
- assay: radioactive equilibrium binding, 1 nM KDR-Fc
property measured: Binding to 1 nM KDR, % (%)

[
  {
    "binder": "3′C6 PR4 (designed binder, Del 1-8) EVVAATPTSLLISWRHPHFPTRYYRITYGETGGNSPVQEFTVPLQPPTATISGLKPGVDYTITGYAVTMGPNDRELLTPISINYRT",
    "units": "%",
    "Binding to 1 nM KDR, %": 37
  }
]

(A) K14 (designed binder, Del 1-8) EVVAATPTSLLISWRHPHFPTRYYRITYGETGGNSPVQEFTVPLQPPTATISGLKPGVDYTITGYAVTREENDHELLIPISINYRT
(B) 1′Del G10 PR4 (designed binder, Del 1-8) EVVAATPTSLLISWRHPHFPTRYYRITYGETGGNSPVQEFTVPLQPPTATISGLKPGVDYTITGYAVTMAQNGHKLMTPISINYRT
Ask | Choose between A and B : whose measured Binding to 1 nM KDR, % value is numerically larger? In your reply, give the label of the chosen option.
Reply | B
(B: 36%, A: 20%)
